Test: activity coefficient (dimensionless); of the first substance listed, at infinite dilution; xn = mol fraction of the nth substance listed
Details: 270 K; Liquid; x1 = 0
Kindly state activity coefficient for each of the entries shown.
// return just the number, without any unit appended

For this compound ( C=CCC [1-butene] + CCCCO ), measured activity coefficient is 3.4

activity coefficient in this record for C=C(C)C [2-methylpropene] + CCC(C)O : 3.5

Per the records, this compound ( CCC [propane] + CCCCO ) has activity coefficient equal to 3.6

Please fill in: activity coefficient reported for CCCC [butane] + CCC(C)O = 4.1

The reported value for CC(C)C [2-methylpropane] + CCC(C)O in terms of activity coefficient is 4.3

Documented activity coefficient of C/C=C/C [(E)-2-butene] + CCCCO : 3.4

get_value(item= C=CC [propene] + CCCCO , readout=activity coefficient) returns 3

----------
Experiment: activity coefficient (dimensionless); of the first substance listed, at infinite dilution; xn = mol fraction of the nth substance listed
Conditions: 310 K; Liquid; x1 = 0
experimental-readout: activity coefficient
The answer should be a number; do not append a unit.

Given item C/C=C/C [(E)-2-butene] + CCCCO , the value recorded as its activity coefficient is 3.3

According to the records, this compound C=CCC [1-butene] + CCCCO displays activity coefficient of 3.3

CCCC [butane] + CCC(C)O has a reported activity coefficient of 3.9

The compound listed as CCC [propane] + CCC(C)O shows activity coefficient equal to 3.5

Just so you know, measured activity coefficient for C=C(C)C [2-methylpropene] + CCC(C)O came out at 3.2
